B1: TPR t1 (parent)
chain: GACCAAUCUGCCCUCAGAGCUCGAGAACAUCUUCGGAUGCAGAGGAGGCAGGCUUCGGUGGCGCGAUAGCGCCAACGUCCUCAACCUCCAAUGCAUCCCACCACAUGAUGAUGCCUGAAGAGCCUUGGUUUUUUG

variants of: B1; experiment: polymerase ribozyme fitness, log enrichment relative to wild type (log ratio); higher = more active; in vitro selection for triplet polymerase activity
Endpoint label: polymerase ribozyme fitness (log ratio)

Note to self: polymerase ribozyme fitness (log ratio) recorded for G35C C49G U78A was -5.52

Note to self: polymerase ribozyme fitness (log ratio) recorded for G42U G57U was -1.5

Note to self: polymerase ribozyme fitness (log ratio) recorded for C3U C4A G51C C53A G71U A103G C114U was -5.71

Note to self: polymerase ribozyme fitness (log ratio) recorded for C4G G36A A43C G45U C124G was -4.47

Note to self: polymerase ribozyme fitness (log ratio) recorded for C56G U96G U125A was -1.29

Note to self: polymerase ribozyme fitness (log ratio) recorded for A83C C101G U109A G120A was -7.06

Note to self: polymerase ribozyme fitness (log ratio) recorded for C88U C98A U106G was -5.05

Note to self: polymerase ribozyme fitness (log ratio) recorded for C11A A83G C85U G120C was 0.982

Note to self: polymerase ribozyme fitness (log ratio) recorded for G93U G120A U125A was 0.0882

Note to self: polymerase ribozyme fitness (log ratio) recorded for A27G C34U was -4.85

Note to self: polymerase ribozyme fitness (log ratio) recorded for U38A G39U G61U C89U A111C was -3.54

Note to self: polymerase ribozyme fitness (log ratio) recorded for A5G C40A C72U G110U was -3.65

Note to self: polymerase ribozyme fitness (log ratio) recorded for C53A U78C G113U was -3.16

Note to self: polymerase ribozyme fitness (log ratio) recorded for G47A C70U was -1.86

Note to self: polymerase ribozyme fitness (log ratio) recorded for A2C C115U was -2.66

Note to self: polymerase ribozyme fitness (log ratio) recorded for A5C A26U C62U was -4.3

Note to self: polymerase ribozyme fitness (log ratio) recorded for A24G A84U was -1.7

Note to self: polymerase ribozyme fitness (log ratio) recorded for C11A G36C was -2.32

Note to self: polymerase ribozyme fitness (log ratio) recorded for C13U U59C C70G was -4.01

Note to self: polymerase ribozyme fitness (log ratio) recorded for C64U C101A G110C was -7.07

Note to self: polymerase ribozyme fitness (log ratio) recorded for C13G G127A was -2.49

Note to self: polymerase ribozyme fitness (log ratio) recorded for C98U C124G was -0.72

Note to self: polymerase ribozyme fitness (log ratio) recorded for C3A C20G A119U A121U U132C was -3.91

Note to self: polymerase ribozyme fitness (log ratio) recorded for A43U G60C C82A G113A G128C was -4.68

Note to self: polymerase ribozyme fitness (log ratio) recorded for C12U C31G was -5.12

Note to self: polymerase ribozyme fitness (log ratio) recorded for C88G G120C was -0.00486

Note to self: polymerase ribozyme fitness (log ratio) recorded for C70A G110A U133A was -3.64

Note to self: polymerase ribozyme fitness (log ratio) recorded for G57C A91C was -0.77

Note to self: polymerase ribozyme fitness (log ratio) recorded for A6G C98U U125G was -3.71

Note to self: polymerase ribozyme fitness (log ratio) recorded for A16C U38G A46U C56A U59A U87G was -4.62

Note to self: polymerase ribozyme fitness (log ratio) recorded for G47U C53U C79A was -4.4

Note to self: polymerase ribozyme fitness (log ratio) recorded for G44U U55A was -0.917

Note to self: polymerase ribozyme fitness (log ratio) recorded for U9A G51A G52A C70G C82U G120C was -5.71

Note to self: polymerase ribozyme fitness (log ratio) recorded for C72G A91G was -1.13

Note to self: polymerase ribozyme fitness (log ratio) recorded for C8U C11A was 0.824

Note to self: polymerase ribozyme fitness (log ratio) recorded for A46U G57C A84U C114U was -3.16

Note to self: polymerase ribozyme fitness (log ratio) recorded for C73G G127A was -1.82

Note to self: polymerase ribozyme fitness (log ratio) recorded for C11U C70G was -2.97

Note to self: polymerase ribozyme fitness (log ratio) recorded for A50U G117U was -2.6

Note to self: polymerase ribozyme fitness (log ratio) recorded for U9A A24C U59C A91U A111C was -6.66

Note to self: polymerase ribozyme fitness (log ratio) recorded for C86U C97U was -0.517

Note to self: polymerase ribozyme fitness (log ratio) recorded for C13G A83U A95C G110A G120U was -3.42

Note to self: polymerase ribozyme fitness (log ratio) recorded for G10U C13U G57C G58U C88U G107A C123U was -6.52

Note to self: polymerase ribozyme fitness (log ratio) recorded for A18G G63A C115A C123U was -6.7

Note to self: polymerase ribozyme fitness (log ratio) recorded for A83U C98U U130C was -0.673

Note to self: polymerase ribozyme fitness (log ratio) recorded for G48U G93A was -0.946

Note to self: polymerase ribozyme fitness (log ratio) recorded for G17A C53U U54A C64U U92G was -4.58

Note to self: polymerase ribozyme fitness (log ratio) recorded for C73A U126A was -1.73

Note to self: polymerase ribozyme fitness (log ratio) recorded for A41C G69U U92C was -0.226

Note to self: polymerase ribozyme fitness (log ratio) recorded for U7A A29U C72U U106A was -1.06

Note to self: polymerase ribozyme fitness (log ratio) recorded for C98A U133G was -6.12
